# System: HCC-2998 colon
# procedure_text: NCI-60 one-dose screen, 48 h
# study_conditions: 10 µM unless noted
The panel holds about 83,000 compounds, 20% with a hit somewhere; the sample as a whole holds those more often. Activity calls are given as the source filed them. How the source made its calls: active means growth percent below 10; inactive means the rest.
Outcomes: active, inactive

[[record]]
compound = "CC(C)(C)CC(C)(C)Nc1c(-c2ccc(C(F)(F)F)cc2)nc2cnccn12"
label_value = "inactive"

[[record]]
compound = "COc1cc(/C=C/C(=O)c2ccc(Nc3ncnc4ccccc34)cc2)cc(OC)c1"
label_value = "active"

[[record]]
compound = "Cc1cc2nc(-c3ccccc3)c(-c3ccccc3)nc2cc1C"
label_value = "inactive"

[[record]]
compound = "COc1cc(C(=O)c2cnc(-c3ccc4cc[nH]c4c3)[nH]2)cc(OC)c1OC"
label_value = "active"

[[record]]
compound = "C[C@]12CCc3nc(Nc4cccc(O)c4)sc3C1=CC[C@@H]1[C@@H]2CC[C@]2(C)/C(=N\\NC(N)=S)CC[C@@H]12"
label_value = "inactive"

[[record]]
compound = "NNC(=O)/C(=C\\c1ccc([N+](=O)[O-])cc1)CC(=O)c1ccc(Cl)c(Cl)c1"
label_value = "inactive"

[[record]]
compound = "Cc1nn(-c2ccccc2)c(N2CCOCC2)c1/C=N/N=c1\\sc2ccccc2n1C"
label_value = "inactive"

[[record]]
compound = "C=C1C(=O)O[C@H]2[C@H]1CC/C(CNC(=O)/C=C/c1ccccc1F)=C\\CC[C@@]1(C)O[C@@H]21"
label_value = "inactive"

[[record]]
compound = "Cn1ncc2c(Nc3ccccc3Cl)nc(Cl)nc21"
label_value = "inactive"

[[record]]
compound = "OC1(c2ccc(Cl)c(C(F)(F)F)c2)CCN(CCCC(c2ccc(F)cc2)c2ccc(F)cc2)CC1"
label_value = "active"

[[record]]
compound = "CC(C)CCSc1nc(NNC(N)=O)c(C#N)c(-c2ccccc2)n1"
label_value = "inactive"

[[record]]
compound = "CCn1ccnc1C(=O)/C=C/c1ccc(CC(=O)Nc2ccc(F)cc2)cc1"
label_value = "inactive"

[[record]]
compound = "CCNC(=O)c1[nH]cc(-c2ccc(OC)cc2)c1-c1cc(OC)cc(OC)c1"
label_value = "inactive"

[[record]]
compound = "Cc1cc(C(=O)Nc2ncnc3nc[nH]c23)no1"
label_value = "inactive"

[[record]]
compound = "COc1cc2nc(-c3ccc(C(F)(F)F)cc3)cc(OCCCN3CCCCC3)c2cc1OC"
label_value = "inactive"

[[record]]
compound = "CCCC1C(C(=O)OCC)=C(N)Oc2cc(O)ccc21 (configuration not stated)"
label_value = "inactive"

[[record]]
compound = "Cc1ccc(-c2c(Br)c(OC(=O)CO[C@@H]3C[C@H](C)CC[C@H]3C(C)C)c(-c3ccc(C)cc3C)c(Br)c2OC(=O)CO[C@H]2C[C@@H](C)CC[C@@H]2C(C)C)c(C)c1"
label_value = "inactive"

[[record]]
compound = "CN1C(=O)N(C)C2NC(N/N=C/c3ccccc3)=NC21 (configuration not stated)"
label_value = "inactive"

[[record]]
compound = "CN1CCN(CCCOc2ccc3ncnc(Nc4ccc(Oc5cccc(C(F)(F)F)c5)c(Cl)c4)c3c2)CC1"
label_value = "active"

[[record]]
compound = "COc1cc(Nc2cc(O)c3c(=O)cc(-c4ccccc4)oc3c2)cc(OC)c1"
label_value = "inactive"

[[record]]
compound = "NS(=O)(=O)c1cccc(NC(=O)C(=O)C2C(=O)Nc3ccccc32)c1 (configuration not stated)"
label_value = "inactive"

[[record]]
compound = "COc1ccc(-c2cnnc3c(-c4cccc(C(F)(F)F)c4)cnn23)cc1"
label_value = "inactive"

